tested.system: 14C-HIgG (human)
method.summary: secondary screening, batch, HIgG non-competitive (PBS), Micro-BCA
No end group written: not given here.
Rule: Bound % of 20% or more gives YES; anything lower gives NO.

[Q] State whether the measured Bound % reaches 20%, counting equality as reaching it, for HEILYWA-{Toyopearl AF‑Amino‑650 resin}
[A] NO

***
[Q] State whether the measured Bound % reaches 20%, counting equality as reaching it, for WHWRKRA-{Toyopearl AF‑Amino‑650 resin}
[A] YES

[Q] State whether the measured Bound % reaches 20%, counting equality as reaching it, for HWRGWVA-{Toyopearl AF‑Amino‑650 resin}
[A] YES

[Q] State whether the measured Bound % reaches 20%, counting equality as reaching it, for HYGLGWA-{Toyopearl AF‑Amino‑650 resin}
[A] NO

[Q] State whether the measured Bound % reaches 20%, counting equality as reaching it, for HANGFLA-{Toyopearl AF‑Amino‑650 resin}
[A] NO

[Q] State whether the measured Bound % reaches 20%, counting equality as reaching it, for YYWLHHA-{Toyopearl AF‑Amino‑650 resin}
[A] YES

[Q] State whether the measured Bound % reaches 20%, counting equality as reaching it, for HFDKGFA-{Toyopearl AF‑Amino‑650 resin}
[A] NO

Attribution: patent US20060153834A1
